- test.protocol: NCI Yeast Anticancer Drug Screen. Data for the sgs1 mgt1 strain (AID 161);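 also: 0% = growth of cultures given vehicle only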
- experimental.parameters: S. cerevisiae sgs1 mgt1 strain, at 50.0 µM
Compounds without any hit were thinned out: in the full panel of roughly 79,000, 15% have a hit. Calls of active or inactive are those of the source. Rule as the data show it: active = growth inhibition above about 70%; inactive = the rest.
Classes used: active, inactive

1. CC(=O)Nc1cnc2ccccc2c1	inactive
2. COC(=O)c1ccc(Cn2ccc(=O)n(Cc3ccc(C(=O)OC)cc3)c2=O)cc1	active
3. CC[C@H]1CN(C)[C@H]2Cc3c([nH]c4ccccc34)C(=O)C[C@H]1C2C(=O)OC (some centres not stated)	inactive
4. COc1ccc(/C=C/C(=O)C(C)(C)CN(C)CCN(C)C)cc1	inactive
5. CCOC(=O)COc1cc(C)c2ccc(=O)oc2c1	inactive
6. O=C(Cc1ccccc1)Nc1ccccc1	inactive
7. CCOC(=O)c1nc2c(n(O)c1=N)CCC/C2=N\O	inactive
8. CCOC(=O)c1c(C)c2c(n1C)CCC(C#N)C2=O (configuration not stated)	inactive
9. N#CCCOCCNCCSC(=O)c1ccccc1	inactive
10. O=C(Nc1cccc2ccccc12)c1ccco1	inactive
11. CSc1c(C)c(C)nn1-c1ccccc1	inactive
12. Cc1cc(C)c(NC(=O)NC2CCCCC2)c(C)c1	inactive

====

Listed next: entries and their corresponding growth inhibition.
- test.protocol: NCI Yeast Anticancer Drug Screen. Data for the sgs1 mgt1 strain (AID 161);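 also: 0% = growth of cultures given vehicle only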
- experimental.parameters: S. cerevisiae sgs1 mgt1 strain, at 50.0 µM, stronger effect = higher value
The panel holds about 79,000 compounds, 15% with a hit somewhere; the sample as a whole holds those more often.
attribute.measured: growth inhibition (%)

1. CCC(=O)C(C)C(=O)CCC(=O)Nc1cc(Cl)ccc1Cl (stereo not drawn)	18.6
2. CC(C)CC(NC(=O)c1cc([N+](=O)[O-])cc([N+](=O)[O-])c1)C(=O)O (stereo not drawn)	16.1
3. O=C1c2ccccc2C(=O)c2[nH]ncc21	-3.25
4. S=C(S)OC1CCCCC1.[Zn+2]	-22.2
5. Nc1cc2c(cc1Br)-c1c(C(=O)O)cccc1C2=O	-2.4
6. C=C1C(=O)OC2(C)CCC1CC1OC1(C)CC/C=C(\C)CCC2OC(C)=O (stereo not drawn)	17.4
7. Cc1nc2ccccc2c(=O)n1NC(=O)c1ccccn1	-11.6
8. O=C(NNc1nc(N2CCOCC2)nc(N2CCOCC2)n1)c1ccccc1	10.9

====

Listed next: entries and their corresponding growth inhibition.
- test.protocol: NCI Yeast Anticancer Drug Screen. Data for the mlh1 rad18 strain (AID 175)
- experimental.parameters: S. cerevisiae mlh1 rad18 strain growth inhibition; at 50.0 µM; stronger effect = higher value
The panel holds about 79,000 compounds, 15% with a hit somewhere; the sample as a whole holds those more often.
attribute.measured: growth inhibition (%)

1) COc1cc(C)c2cccc(C)c2n1	8.7
2) CCCN(C(=O)c1ccccc1)C(C#N)c1ccc(C(C#N)N(CCC)C(=O)c2ccccc2)cc1 (centres undefined)	-32.5
3) O=C(N=C1[Se]C(=Nc2ccccc2)C(=Nc2ccccc2)N1c1ccccc1)c1ccccc1	3.25
4) CCC(C#N)(C(=O)OC)/C(C)=C/C(C)C (centres undefined)	-25.1
5) O=C1CN(C=C(C(=O)c2ccccc2)C(=O)c2ccccc2)C(=S)N1	-30.4
6) CC(=O)OCc1ccc(C)cc1	0.3
7) N=C(N)/N=C(/C=C/c1ccccc1)CC1OC(=O)c2ccccc21 (centres undefined)	-24.3
8) Cc1c[nH]c2nc(C)n(-c3ccc(F)cc3)c(=N)c12	5.3
9) CC(=O)N(C)N=Nc1ccc(Cl)cc1	15.9
